Some compounds, each annotated with its measured inhibition.
Target Desc: Integrin alpha-4/beta-7 (Mus musculus) (UniProt Q00651+P26011)
Test Method Notes: Inhibition of integrin alpha4 beta7 receptor in mouse TK1 cells assessed as inhibition of Mn2+-activated cell adhesion to mouse MAdCAM-1-Fc at 50 uM after 1 hr by methylene blue staining analysis relative to biotin-r9YDRREY
Assay type: cell-based
Residues, ends and D or L forms follow the SMILES beside them. *: point of attachment. Biotin = O=C1N[C@H]2[C@H](CS[C@H]2CCCCC(=O)*)N1; X7 = O=C(O)Cn1cc(C*)nn1; Propargyl = C#CC*
Measurement Name: inhibition (%)

>>> readout_number("C#CCOc1ccc(C[C@H](NC(=O)[C@H](CCCNC(=N)N)NC(=O)[C@H](CCC(=O)O)NC(=O)[C@H](CCCNC(=N)N)NC(=O)[C@H](CCCNC(=N)N)NC(=O)[C@H](CCCNC(=N)N)NC(=O)[C@H](CCCNC(=N)N)NC(=O)[C@H](CCCNC(=N)N)NC(=O)[C@H](CCCNC(=N)N)NC(=O)[C@H](CCCNC(=N)N)NC(=O)[C@H](CCCNC(=N)N)NC(=O)CCCC[C@@H]2SC[C@@H]3NC(=O)N[C@@H]32)C(=O)O)cc1 (Biotin-RRRRRRRRERY(Propargyl)-OH)")
39.8
>>> readout_number("N=C(N)NCCC[C@H](NC(=O)CCCC[C@@H]1SC[C@@H]2NC(=O)N[C@@H]21)C(=O)N[C@@H](CCCNC(=N)N)C(=O)N[C@@H](CCCNC(=N)N)C(=O)N[C@@H](CCCNC(=N)N)C(=O)N[C@@H](CCCNC(=N)N)C(=O)N[C@@H](CCCNC(=N)N)C(=O)N[C@@H](CCCNC(=N)N)C(=O)N[C@@H](CCCNC(=N)N)C(=O)N[C@@H](CCC(=O)O)C(=O)N[C@@H](CCCNC(=N)N)C(=O)N[C@@H](Cc1ccc(OCc2cn(CC(=O)O)nn2)cc1)C(=O)O (Biotin-RRRRRRRRERY(X7)-OH)")
56.1

Values compiled from ChEMBL document CHEMBL2010719.
